Quick reference: logP of the listed items.
Assay: Partition coefficient, log P of the compound
Type: physicochemical
Conditions: octanol/water
Test Readout: logP

C/C(=N\NC(=O)c1ccc(C(F)(F)F)cc1)c1cnccn1    2
C/C(=N\NC(=O)c1ccccc1)c1cnccn1 [METHYL PYRAZINYLKETONE BENZOYL HYDRAZONE]    1.9
C/C(=N\NC(=O)c1ccncc1)c1cnccn1    1.2
C/C(=N\NC(=O)c1ccc([N+](=O)[O-])cc1)c1cnccn1    2.1
C/C(=N\NC(=O)c1ccc(Br)cc1)c1cnccn1    2.9
C/C(=N\NC(=O)c1cccc(Br)c1)c1cnccn1    2.9
C/C(=N\NC(=O)c1ccc(N)cc1)c1cnccn1    1.3
C/C(=N\NC(=O)c1cccs1)c1cnccn1    2.6
C/C(=N\NC(=O)c1ccc(O)cc1)c1cnccn1    1.9
